Data credit: the RNAGym collection of RNA variant scans (doi:10.1073/pnas.2313332121)

B1: TPR t1 (parent)
chain: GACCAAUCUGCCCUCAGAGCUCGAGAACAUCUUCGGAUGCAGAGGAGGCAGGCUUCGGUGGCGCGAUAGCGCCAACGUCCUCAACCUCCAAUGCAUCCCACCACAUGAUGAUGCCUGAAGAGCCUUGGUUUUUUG

variants of: B1; experiment: polymerase ribozyme fitness, log enrichment relative to wild type (log ratio); higher = more active; in vitro selection for triplet polymerase activity
Quick rule: polymerase ribozyme fitness (log ratio) of at least -4 means 1.0, below that means 0.0.

mutant.id | discrete.label
G36U G45A A119U | 1.0
A68G C114U | 0.0
A68G G71A A95C | 0.0
C15G A16G C49U C56U G117U | 1.0
C12G U14A A26U C72U A90G C123A | 1.0
A29G C40A C99G A111G | 0.0
A26U G44C G48C C101A A111G U112A C124A | 0.0
U116C | 1.0
C11U G69A | 1.0
U116C U129G U132C | 1.0
G23A G77U | 0.0
U106A U112G G117C | 0.0
A41G G44A C62A U131G | 1.0
C62U G93C A105U | 1.0
G52U G61U U81C C115U | 0.0
A90G G113U A118C | 0.0
G44A C76A C123G | 1.0
A16U A18G | 1.0
U59A C85U G113A | 1.0
G47C U54G G58C G69U C123G | 1.0
G36A A68G | 1.0
C70G A119G | 1.0
C13G C72U A119U | 1.0
C72U G113C C123G | 1.0
G19A G71C C115U G128U | 0.0
C40G G47U A74U | 0.0
U116A G120U | 1.0
A43U C97A | 0.0
C34A C98U G122U | 1.0
G17C A18C | 0.0
U59C U78C G122A | 1.0
U9G U38G C70U A105U | 0.0
C53G C70A | 1.0
A50U C62U C70G G117U G120A | 0.0
U21A C56G U78A C85A U109G | 0.0
